Settings: in n-pentanol, 303.24 K
MEASURED PROPERTY: solubility (mole fraction)
Reply with just the number.

Query string: Quick one: solubility (mole fraction) for C[C@H]1[C@H](OC(=O)CCC(=O)O)O[C@@H]2O[C@@]3(C)CC[C@H]4[C@H](C)CC[C@@H]1[C@@]24OO3 ?
Result string: 0.0266

* * *

Settings: in isopentanol, 293.14 K
MEASURED PROPERTY: solubility (mole fraction)
Reply with just the number.

Query string: Quick one: solubility (mole fraction) for C[C@H]1[C@H](OC(=O)CCC(=O)O)O[C@@H]2O[C@@]3(C)CC[C@H]4[C@H](C)CC[C@@H]1[C@@]24OO3 ?
Result string: 0.00915
